# experimental target: Androgen receptor (Homo sapiens)
# procedure summary: Displacement of androgen from androgen binding site of androgen receptor (unknown origin)
The source made the active and inactive calls. The calls are words filed in the database; no cut-off is given here.
readout type: inhibition

Solved entries:
* CN(Cc1ccc(Br)s1)C(=O)c1cc2ccc(F)cc2[nH]1 | inactive
* CN(Cc1cccs1)C(=O)c1cc2ccc(F)cc2[nH]1 | inactive
* Cc1ccc(CN(C(=O)c2cc3cc(F)ccc3[nH]2)C(C)C)o1 | inactive
* CC(C)N(Cc1ccco1)C(=O)c1cc2cc(F)ccc2[nH]1 | inactive

Kindly state the measured inhibition obtained for "CC(C)N(Cc1ccco1)C(=O)c1cc2cc(C(F)(F)F)ccc2[nH]1" with Androgen receptor (Homo sapiens).
inactive

Kindly state the measured inhibition obtained for "O=C(c1cc2ccc(F)cc2[nH]1)N(Cc1ccco1)Cc1ccco1" with Androgen receptor (Homo sapiens).
inactive

----------
# experimental target: Androgen receptor (Homo sapiens)
# Sequence (P10275 whole entry): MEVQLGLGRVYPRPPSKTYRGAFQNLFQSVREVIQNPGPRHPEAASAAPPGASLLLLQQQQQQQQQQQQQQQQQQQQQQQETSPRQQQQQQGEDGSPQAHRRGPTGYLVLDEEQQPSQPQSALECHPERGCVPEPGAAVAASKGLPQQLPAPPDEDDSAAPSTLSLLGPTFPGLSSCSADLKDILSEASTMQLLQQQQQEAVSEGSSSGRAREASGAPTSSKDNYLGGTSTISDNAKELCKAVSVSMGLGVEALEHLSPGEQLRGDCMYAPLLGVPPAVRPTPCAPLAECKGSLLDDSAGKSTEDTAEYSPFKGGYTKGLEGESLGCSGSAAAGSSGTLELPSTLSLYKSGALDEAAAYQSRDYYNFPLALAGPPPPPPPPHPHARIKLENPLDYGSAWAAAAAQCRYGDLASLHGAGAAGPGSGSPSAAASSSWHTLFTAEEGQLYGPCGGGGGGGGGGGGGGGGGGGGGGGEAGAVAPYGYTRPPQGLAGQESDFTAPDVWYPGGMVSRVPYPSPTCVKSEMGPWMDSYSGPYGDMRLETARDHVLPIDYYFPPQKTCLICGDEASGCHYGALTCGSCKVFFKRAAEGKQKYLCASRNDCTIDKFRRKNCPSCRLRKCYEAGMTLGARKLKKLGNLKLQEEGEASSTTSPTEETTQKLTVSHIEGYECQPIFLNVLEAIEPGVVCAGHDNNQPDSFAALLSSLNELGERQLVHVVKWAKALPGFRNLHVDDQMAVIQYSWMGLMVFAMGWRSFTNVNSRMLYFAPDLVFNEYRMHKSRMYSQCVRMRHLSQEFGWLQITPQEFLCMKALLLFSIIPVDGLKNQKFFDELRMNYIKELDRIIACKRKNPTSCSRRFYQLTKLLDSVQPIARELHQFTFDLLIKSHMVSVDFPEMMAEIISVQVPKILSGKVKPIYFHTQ
# procedure summary: Inhibition of androgen receptor binding function 3 in human LNCAP cells containing androgen-responsive probasin-derived promoter assessed as reduction in PSA expression after 3 days by […] assay
# Format: cell-based
readout type: IC50 (µM)

• Cc1ccc2[nH]c(C(=O)N(Cc3ccco3)C(C)C)cc2c1 = 1.2

[a] COCCN(Cc1ccco1)C(=O)c1cc2cc(F)ccc2[nH]1
[b] Cc1ccc(CN(C(=O)c2cc3ccc(F)cc3[nH]2)C(C)C)o1
[c] N#CCCN(Cc1ccccc1)C(=O)c1cc2ccccc2[nH]1
[d] Cc1ccc(CN(C(=O)c2cc3cc(F)ccc3[nH]2)C(C)C)o1
Give the ascending ranking of the items by reported IC50. A complete answer lists every label in the requested sequence.
b, d, c, a
(b: 0.84 µM, d: 1.38 µM, c: 4.58 µM, a: 6.62 µM)

[P] CN(Cc1ccc(Br)o1)C(=O)c1cc2ccc(F)cc2[nH]1
[Q] O=C(c1cc2ccc(F)cc2[nH]1)N(Cc1ccco1)Cc1ccco1
[R] CN(Cc1ccc(Br)s1)C(=O)c1cc2ccc(F)cc2[nH]1
Hey, quick one: sort these by IC50, largest value first please. A complete answer lists every label in the requested sequence.
P, Q, R
(P: 8.09 µM, Q: 5.48 µM, R: 3.06 µM)

[A] CN(Cc1cccs1)C(=O)c1cc2ccc(F)cc2[nH]1
[B] Cc1ccc(CN(C(=O)c2cc3ccccc3[nH]2)C(C)C)o1
Among A and B , whose measured IC50 is the smaller figure? To answer, give the label that identifies your chosen option.
B

[I] Cc1ccc(CN(C)C(=O)c2cc3cc(F)ccc3[nH]2)o1
[II] Cc1ccc2[nH]c(C(=O)N(Cc3ccc(C)o3)C(C)C)cc2c1
[III] Cc1ccc2cc(C(=O)N(Cc3ccco3)C(C)C)[nH]c2c1
Give the ascending ranking of the items by reported IC50. A complete answer lists every label in the requested sequence.
III, II, I
(III: 0.85 µM, II: 1.77 µM, I: 6.56 µM)

----------
# System: LNCaP
# procedure summary: Antiproliferative activity against human LNCAP cells after 4 days by MTS assay
# Format: functional, cell-based
# experimental parameters: 96 h
readout type: IC50 (µM)
Express your answer in µM, writing the number without its unit.

Look at this molecule and give its reported IC50. "Cc1ccc(CN(C(=O)c2cc3ccc(F)cc3[nH]2)C(C)C)o1"
0.55

----------
# experimental target: UniProt P10275
# Sequence (P10275 whole entry): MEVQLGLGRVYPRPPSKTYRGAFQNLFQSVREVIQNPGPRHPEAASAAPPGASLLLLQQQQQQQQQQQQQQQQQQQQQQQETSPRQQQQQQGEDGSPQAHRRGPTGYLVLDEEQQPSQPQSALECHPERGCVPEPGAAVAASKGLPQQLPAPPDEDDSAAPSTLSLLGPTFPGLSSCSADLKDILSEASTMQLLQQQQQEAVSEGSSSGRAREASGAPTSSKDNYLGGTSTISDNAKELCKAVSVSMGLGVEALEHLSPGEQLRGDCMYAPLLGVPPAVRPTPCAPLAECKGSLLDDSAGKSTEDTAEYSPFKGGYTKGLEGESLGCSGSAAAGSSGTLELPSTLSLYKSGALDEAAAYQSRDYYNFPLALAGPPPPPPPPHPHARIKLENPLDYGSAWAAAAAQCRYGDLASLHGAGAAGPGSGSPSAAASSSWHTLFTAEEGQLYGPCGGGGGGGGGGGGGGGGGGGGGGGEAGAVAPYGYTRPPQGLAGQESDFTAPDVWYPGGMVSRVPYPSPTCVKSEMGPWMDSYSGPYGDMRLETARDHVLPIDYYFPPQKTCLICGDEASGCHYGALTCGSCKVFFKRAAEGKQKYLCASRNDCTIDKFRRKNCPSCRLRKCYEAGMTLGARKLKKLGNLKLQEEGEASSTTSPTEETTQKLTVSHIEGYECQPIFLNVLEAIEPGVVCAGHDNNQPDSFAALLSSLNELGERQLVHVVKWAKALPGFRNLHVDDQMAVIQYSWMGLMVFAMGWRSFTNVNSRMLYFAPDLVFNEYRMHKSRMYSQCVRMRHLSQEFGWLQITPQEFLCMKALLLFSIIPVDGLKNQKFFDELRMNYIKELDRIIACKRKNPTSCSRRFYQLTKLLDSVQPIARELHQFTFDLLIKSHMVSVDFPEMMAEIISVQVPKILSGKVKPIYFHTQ
# procedure summary: Inhibition of androgen receptor binding function 3 in eGFP-expressing human LNCAP cells containing androgen-responsive probasin-derived promoter assessed as reduction in androgen receptor transcriptional activity after 3 days
# Assay type: cell-based
pIC50: −log10 of the molar value.
readout type: pIC50

Solved entries:
* CC(C)N(Cc1ccco1)C(=O)c1cc2cc(C(F)(F)F)ccc2[nH]1 | 5.28
* N#CCCN(Cc1ccccc1)C(=O)c1cc2ccccc2[nH]1 | 5.12
* Cc1ccc2[nH]c(C(=O)N(Cc3ccc(C)o3)C(C)C)cc2c1 | 5.57
* CN(Cc1cccs1)C(=O)c1cc2ccc(F)cc2[nH]1 | 5.47
* O=C(c1cc2ccc(F)cc2[nH]1)N(Cc1ccco1)Cc1ccco1 | 5.39
* Cc1ccc(CN(C(=O)c2cc3cc(F)ccc3[nH]2)C(C)C)o1 | 5.96
* Cc1ccc(CN(C(=O)c2cc3ccc(F)cc3[nH]2)C(C)C)o1 | 6.15
* COCCN(Cc1ccco1)C(=O)c1cc2cc(F)ccc2[nH]1 | 5.19
* Cc1ccc2cc(C(=O)N(Cc3ccco3)C(C)C)[nH]c2c1 | 5.99
* CN(Cc1ccc(Br)s1)C(=O)c1cc2ccc(F)cc2[nH]1 | 5.45

[a] Cc1ccc(CN(C(=O)c2cc3cccc(F)c3[nH]2)C(C)C)o1
[b] CC(C)N(Cc1ccco1)C(=O)c1cc2cc(F)ccc2[nH]1
[c] Cc1ccc(CN(C(=O)c2cc3ccccc3[nH]2)C(C)C)o1
[d] Cc1ccc(CN(C)C(=O)c2cc3cc(F)ccc3[nH]2)o1
[e] CN(Cc1ccc(Br)o1)C(=O)c1cc2ccc(F)cc2[nH]1
Give the ascending ranking of the items by reported pIC50. A complete answer lists every label in the requested sequence.
e, d, c, a, b
(e: 4.80, d: 5.03, c: 5.48, a: 6.00, b: 6.22)

[A] Cc1ccc2cc(C(=O)N(Cc3ccc(C)o3)C(C)C)[nH]c2c1
[B] Cc1ccc2[nH]c(C(=O)N(Cc3ccco3)C(C)C)cc2c1
Which has the higher pIC50, A or B ? To answer, give the label that identifies your chosen option.
B

Where these numbers come from: ChEMBL document CHEMBL3351962
